- Experimental Target: SARS-CoV-2 S (SARS-CoV-2, UniProt P0DTC2 1-1208)
- Experimental Details: BLI
Reported Endpoint: pKd
Give bare numbers, as −log10 of the molar value.

Consider the reported pKd for these binders:
INSERT INTO measurements (binder, numeric_result) VALUES
  ('CC9.2 IgG (antibody, V domains shown) VH: EVQLVESGGGLVQPGRSLRLSCVAPGFTLGGYGMHWVRQAPGKGLEWVGLISYDGSVQKYGSSVKGRFTISKDNSKNTLYLEMNSLRADDTAVYFCVKGASLGDNWGQGTLVTVSS VL: EIVMTQSPLSLPVTLGQPASISCRSSQSLVYSDGDTYMSWFHQRPGQSPRRLIYKVSNRDFGVPDRFSGSGSGTDFTLKISRVEAEDVGVYYCMQGTHWPYTFGPGTKVEIK', 7.80),
  ('CC9.3 Fab (Fab, V domains shown) VH: QVQLQESGPGLVKPSETLSLTCTVSGGSIRSDFWSWIRQFPGKGLEWIGYIYYSGSTNYNPSLESRVTISVDTSKNEFSLKLNYVTAADTAIYYCARETRWNWLDSWGQGTLVTVSS VL: DIVMTQSPDSLAVSLGERASINCKSSQTISYISNNKNYLAWYQQKPGQPPRLLIYWASTRESGVPDRFSGGGFGTDFTLTISSLQAEDVAVYYCQQYFNTPWTFGQGTKVEIK', 6.95);

Need pKd for each of these binders.
1. CC9.3 IgG (antibody, V domains shown) VH: QVQLQESGPGLVKPSETLSLTCTVSGGSIRSDFWSWIRQFPGKGLEWIGYIYYSGSTNYNPSLESRVTISVDTSKNEFSLKLNYVTAADTAIYYCARETRWNWLDSWGQGTLVTVSS VL: DIVMTQSPDSLAVSLGERASINCKSSQTISYISNNKNYLAWYQQKPGQPPRLLIYWASTRESGVPDRFSGGGFGTDFTLTISSLQAEDVAVYYCQQYFNTPWTFGQGTKVEIK
2. CC40.8 Fab (Fab, V domains shown) VH: EVQLLESGGGLVQPGGSLRLSCAASGFTFSSYVMTWARQAPGKGLEWVSAISGTGYTYYADSVKGRFTVSRDNSKNTLFLQMSSLRAEDTAVYYCAITMAPVVWGQGTTVTVSS VL: SYELTQPPSVSVSPGQTARITCSGDALPKRYAYWYQQKSGQAPILVIYEDKKRPSGIPERLSGSKSGTVATLTISGAQVEDEADYYCYSTDSSGNHAVFGGGTQLTVL

Data returned:
1: 8.70; 2: 8.30
